Test system: carrageenan-induced rat paw edema
Assay: Carrageenan-induced rat paw edema model
Assay type: in vivo
Conditions: Rattus norvegicus; 10.0 mg/kg, 4 h
ASSAY ENDPOINT: inhibition in vivo at 10 mg/kg

# COMPOUND SMILES, SYSTEM UNDER TEST, inhibition in vivo at 10 mg/kg
data = [
    ("COc1ccc2cc([C@H](C)C(=O)NC(=S)Nc3ccc(C)cc3)ccc2c1", "carrageenan-induced rat paw edema", "50%"),
]

// recorded inhibition in vivo at 10 mg/kg for `COC(=O)[C@H](Cc1ccccc1)NC(=S)NC(=O)[C@@H](C)c1ccc2cc(OC)ccc2c1` : 33.3%

// recorded inhibition in vivo at 10 mg/kg for `COc1ccc2cc([C@H](C)C(=O)NC(=S)Nc3ccccc3)ccc2c1` : 46.7%
